Tested on: 327498-153-R-J2-PDC complex spheroid growth, % test/control;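 also: spheroids exposed to compound for 7 days after 3 days of growth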
ASSAY DETAILS: Anticancer human tumor 327498-153-R-J2-PDC patient-derived uterine carcinosarcoma cell line growth inhibition [Asc]; active = viability on the fitted dose curve at most 10% of control; inactive = the rest
CONDITION PARAMETERS: second compound 0.949 µM; first compound 0.0316 µM
# valid calls are active, inactive; nothing else

# input Identify the outcome logged in this assay for the molecule shown: CNC(C)C(=O)NC1CN(S(=O)(=O)c2cccc(S(=O)(=O)N3CCC4CCC(C(=O)NC(c5ccccc5)c5ccccc5)N4C(=O)C(NC(=O)C(C)NC)C3)c2)CCC2CCC(C(=O)NC(c3ccccc3)c3ccccc3)N2C1=O (stereo not given) + CCN1C(C(=O)NC23CCC(C(=O)O)(CC2)CC3)C(c2cccc(Cl)c2F)C2(C(=O)Nc3cc(Cl)ccc32)C12CCCCC2
# output active

# input Hello, I am checking results. What call was entered for NC1CCC(NC2CC2c2ccccc2)CC1 (stereo not given) + CCN1C(C(=O)NC23CCC(C(=O)O)(CC2)CC3)C(c2cccc(Cl)c2F)C2(C(=O)Nc3cc(Cl)ccc32)C12CCCCC2 ?
# output inactive
